Provide the recorded IC50 for the entries that follow.
- Target or system: DPP-IV (Homo sapiens)
- Construct: an extract of the human colon carcinoma cell line Caco-2 is used as the DPP IV source; host or cells: Caco-2 (differentiated to induce DPP-IV expression), Nonidet-P40 solubilised extract
- Sequence (P27487 whole entry): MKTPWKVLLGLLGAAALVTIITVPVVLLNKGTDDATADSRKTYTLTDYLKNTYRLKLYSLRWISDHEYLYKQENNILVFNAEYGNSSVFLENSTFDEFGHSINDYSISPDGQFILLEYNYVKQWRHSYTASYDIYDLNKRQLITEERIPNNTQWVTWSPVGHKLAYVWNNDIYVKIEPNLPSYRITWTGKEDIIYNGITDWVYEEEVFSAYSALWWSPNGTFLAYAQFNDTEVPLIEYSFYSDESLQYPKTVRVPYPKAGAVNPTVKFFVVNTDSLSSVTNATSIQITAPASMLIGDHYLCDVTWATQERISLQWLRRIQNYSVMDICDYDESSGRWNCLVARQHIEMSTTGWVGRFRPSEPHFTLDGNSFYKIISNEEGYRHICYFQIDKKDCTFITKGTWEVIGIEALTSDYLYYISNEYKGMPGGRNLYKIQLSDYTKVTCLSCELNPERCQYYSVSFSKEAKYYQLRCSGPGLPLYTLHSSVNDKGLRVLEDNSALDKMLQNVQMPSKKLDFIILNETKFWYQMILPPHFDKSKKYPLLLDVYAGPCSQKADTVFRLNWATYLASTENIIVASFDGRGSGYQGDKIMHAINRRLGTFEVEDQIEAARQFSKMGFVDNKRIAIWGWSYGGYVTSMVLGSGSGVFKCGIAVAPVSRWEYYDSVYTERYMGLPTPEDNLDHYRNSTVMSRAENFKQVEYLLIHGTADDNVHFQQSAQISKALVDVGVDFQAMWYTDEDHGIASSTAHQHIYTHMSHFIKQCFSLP
- Protocol description: DPP-IV assay with extract of Caco-2 cells as DPP IV source
- Assay type: biochemical
- Particulars: extract of human colon carcinoma cell line Caco-2 as DPP IV source, substrate AFC 100 μM, 60 minutes, ambient temperature; read-out: DPP IV inhibition IC50
One number for each entry, in nM.

COCCn1c(=O)c2c(nc(N3CCCC(N)C3)n2CC=C(C)C)n(C)c1=O (centres unmarked)    166

Batch: IC50 for all items listed.
1. CC(C)=CCn1c(N2CCCC(N)C2)nc2c1c(=O)n(CCO)c(=O)n2C (centres unmarked)
2. CC(C)=CCn1c(N(C)CCN)nc2c1c(=O)n(C)c(=O)n2C
3. C=CCn1c(=O)c2c(nc(N3CCCC(N)C3)n2CC=C(C)C)n(C)c1=O (centres unmarked)
4. CC(C)=CCn1c(N2CCCC(N)C2)nc2c1c(=O)n(C(C)C)c(=O)n2C (centres unmarked)

125
95
124
2770

Dear colleague, could you please provide IC50 for the molecules listed below?
1. CC(C)=CCn1c(N2CCCC(N)C2)nc2c1c(=O)n(Cc1cccc3ccccc13)c(=O)n2C (centres unmarked)
2. CC(C)=CCn1c(N2CCCC(N)C2)nc2c1c(=O)n(C)c(=O)n2CCc1ccc(F)cc1 (centres unmarked)
3. CC(C)=CCn1c(N2CCCC(N)C2)nc2c1c(=O)n(Cc1ccccn1)c(=O)n2C (centres unmarked)
4. Cn1c(=O)c2c(nc(N3CCCC(N)C3)n2Cc2ccccc2C#N)n(C)c1=O (centres unmarked)
5. Cc1cccc(-n2c(N3CCCC(N)C3)nc3c2c(=O)n(C)c(=O)n3C)c1 (centres unmarked)

1: 22; 2: 22; 3: 20; 4: 10; 5: 167

Give me IC50 for each of these molecules, listed below.
1. CC(C)=CCn1c(N2CCCC(N)C2)nc2c1c(=O)n(CCN(C)C)c(=O)n2C (centres unmarked)
2. CC(C)=CCn1c(N2CCCC(N)C2)nc2c1c(=O)[nH]c(=O)n2C (centres unmarked)
3. CC(C)=CCn1c(N2CCCC(N)C2)nc2c1c(=O)n(C)c(=O)n2CC(=O)c1ccccc1 (centres unmarked)
4. CC(C)=CCn1c(N2CCC[C@H](N)C2)nc2c1c(=O)n(CCc1cccc(O)c1)c(=O)n2C
5. CC(C)=CCn1c(N2CCCNCC2)nc2c1c(=O)n(CCc1ccccc1)c(=O)n2C
6. CC(C)=CCn1c(N2CCCC(N)C2)nc2c1c(=O)n(CC(=O)c1cccc(OCC#N)c1)c(=O)n2C (centres unmarked)
7. CC(C)=CCn1c(N[C@@H]2CCCC[C@@H]2N)nc2c1c(=O)n(C)c(=O)n2C (relative stereo)

1: 2050; 2: 624; 3: 64; 4: 66; 5: 212; 6: 6; 7: 230

----------
- Target or system: DPP-IV (Homo sapiens)
- Construct: an extract of the human colon carcinoma cell line Caco-2 is used as the DPP IV source; host or cells: Caco-2 (differentiated to induce DPP-IV expression), Nonidet-P40 solubilised extract
- Protocol description: DPP-IV assay with extract of Caco-2 cells as DPP IV source
- Assay type: biochemical
- Particulars: extract of human colon carcinoma cell line Caco-2 as DPP IV source, substrate AFC 100 μM, 60 minutes, ambient temperature; read-out: DPP IV inhibition IC50
Would you mind telling me the reported IC50 of each entry?
Numbers only, in nM.

Cn1c(=O)c2c(nc(N3CCCC(N)C3)n2Cc2ccccc2)n(CC(=O)O)c1=O (centres unmarked) [Example 6]    55
CC(C)=CCn1c(N2CCCC(N)C2)nc2c1c(=O)n(CC(=O)c1ccccc1N)c(=O)n2C (centres unmarked) [2(136)]    3

Each compound below has a recorded value; state its IC50.
1. CCn1c(=O)n(C)c(=O)c2c1nc(N1CCCC(N)C1)n2Cc1ccccc1 (centres unmarked) [1(34)]
2. C#CCOc1cccc(C(=O)Cn2c(=O)c3c(nc(N4CCCC(N)C4)n3CC=C(C)C)n(C)c2=O)c1 (centres unmarked) [2(85)]
3. CC(C)=CCn1c(N2CCCC(N)C2)nc2c1c(=O)n(CCc1ccccn1)c(=O)n2C (centres unmarked) [1(60)]
4. CCn1c(=O)c2c(nc(N3CCCC(N)C3)n2CC=C(C)C)n(C)c1=O (centres unmarked) [1(16)]
5. Cn1c(=O)c2c(nc(N3CCCC(N)C3)n2Cc2ccccc2)n(CCc2ccccc2)c1=O (centres unmarked) [1(70)]

1: 205; 2: 17; 3: 57; 4: 78; 5: 32

So what's the measured IC50 for this one? CC(C)=CCn1c(N2CCCC(N)C2)nc2c1c(=O)n(CCc1cccc(C)c1)c(=O)n2C (centres unmarked) [1(55)]
142
